src = PubChem BioAssay

# test: Restrictive medium S. cerevisiae growth inhibition, OD615, pilot screen of yeast lifespan reduction project, restrictive growth control (AID 706);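 also: modified DeaD lifespan yeast strain shifted to restrictive glucose medium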
# assay_context: OD615, 48 h, at 10 µM, hits give high values
Task for the reader: assign each of the following molecules its reported growth inhibition.
Give bare numbers, in %.

CCNCCNC(=O)c1c(O)c2cccc3c2n(c1=O)CCC3	-19
C1CCC(Nc2nnnn2C2CCCCC2)CC1	-16.1
CCn1c(CNC(=O)c2ccc(OC)cc2)nnc1SC	3.58
CC(C)(C)NC(=O)Cn1c(=O)oc2cc(S(=O)(=O)N3CCc4ccccc43)ccc21	-12.1
CCOC(=O)CSc1nc(N)nc(C)c1Br	-3.4
CCCOc1ccc(C2c3c(oc4cc(C)c(C)cc4c3=O)C(=O)N2CCCN2CCOCC2)cc1 (stereo unspecified)	1.72
COc1ccc(NC(=O)c2ccc(CN3CCN(c4ccccc4)CC3)cc2)cc1	-9.14
O=C(O)C1CCCN1S(=O)(=O)c1cc(Cl)ccc1Cl (stereo unspecified)	-6.05
CC(CNC(=O)c1ccc(Br)o1)NC(=O)c1ccc(Br)o1 (stereo unspecified)	2.43
COc1cc(C(=O)NCCc2cn3ccccc3n2)cc(OC)c1OC	-6.93

// each listed molecule needs a value for growth inhibition
1. CCOC(=O)c1cnc2c(C)c(Cl)ccc2c1N1CCOCC1
2. CN1CCN(CCCNC(=O)c2cn(C)c3ccc(S(=O)(=O)N(C)C)cc3c2=O)CC1
3. CCOC(=O)c1c(NC(=O)c2cccs2)sc2c1CCCC2
4. CN=C(NC)SC1CC(=O)N(c2ccccc2)C1=O (stereo unspecified)
5. O=C(c1ccccc1F)N1CCN=C1SCc1cccnc1
6. O=C(CCS(=O)(=O)c1cccc2nonc12)NCCc1ccccc1Cl

-- reply
1: -2.46; 2: 2.12; 3: -21.1; 4: -4.91; 5: 1.65; 6: -9.76

====

# test: growth suppression of PTEN-deleted HCT116, pilot screen, cell-based, HCT116 clonal line, CellTiter-Glo (AID 824);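 also: 0% = 20 µM Hyamine control and 100% = vehicle cell control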
# assay_context: 60 h, at 10 µM, hits give low values
Inconclusive results are not listed.
Task for the reader: assign each of the following molecules its reported viability.
Numbers only, in %.

Cc1ccccc1C(=O)OCn1nnc2ccccc2c1=O	93.2
CC(=O)Nc1cc2c(cc1C(=O)c1ccccc1)OCCO2	92.9
CCCCOC(=O)Nc1nc(CC(=O)OCC)cs1	95.7

Please look at the items below and tell me viability for each one, in order.
1. CSc1nnc(Cn2c(=O)sc3ccccc32)n1-c1ccccc1
2. O=C(Nc1nc(-c2ccc3c(c2)OCO3)cs1)C1COc2ccccc2O1 (stereo not drawn)
3. COc1ccc(C2C(C(=O)N3CCCCC3)c3ccccc3C(=O)N2C)cc1 (stereo not drawn)
4. COc1ccccc1-n1c(CNC(=O)c2ccco2)nnc1SCC(=O)Nc1nccs1
5. COC(=O)c1cc(-c2ccc(Br)cc2)on1
6. CSc1cccc(NC(=O)CN(c2ccc(C)cc2C)S(C)(=O)=O)c1

-- reply
102
88.9
91.2
66.2
96.6
67.8

====

# test: inhibitors of the yeast RAM network, pilot screen, dse1pr::URA3 reporter, 5-FOA selection (AID 869);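 also: 0% = DMSO wells with no growth and 100% = 10 µM 1-NA-PP1 with full growth; RAM network block rescues cells from 5-FOA so hits raise OD615 growth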
# assay_context: S. cerevisiae dse1pr::URA3 5-FOA growth, OD615, 2 d; at 10 µM; hits give high values; strain carries analog-sensitive mutant Cbk1 kinase
Calls of active or inactive are those of the source.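 Rule for the calls: active = inhibition over a set limit, the all-compound mean plus 3 SD, in both replicate runs; inconclusive = over that limit in just one replicate run; inactive = at or under that limit in both runs.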
assay_metric: inhibition

Solved entries (count: 10):
CC(=O)Nc1ccc(S(=O)(=O)N2CCSCC2)cc1	1.88% (inactive)
NC(=O)c1cccc(S(=O)(=O)N2CC(c3ccccc3)CC2=O)c1 (configuration not stated)	0.075% (inactive)
CN(C)c1cc(-c2ccccc2)nc(N)n1	2.73% (inactive)
CC(C)C(NS(=O)(=O)c1ccc2c(c1)oc(=O)n2C)C(=O)N1CCN(c2ccccc2F)CC1 (configuration not stated)	1.75% (inactive)
O=C(c1cc2nc(-c3ccco3)cc(C(F)(F)F)n2n1)N1CCCCCC1	0.805% (inactive)
O=C(Nc1ccc(-c2nc3cccnc3s2)cc1)c1ccc(Br)o1	1.11% (inactive)
Cc1c(C(=O)N2CCCc3ccccc32)sc2nc(-c3ccccc3)cn12	2.46% (inactive)
CCn1c(-c2ccccc2O)n[nH]c1=S	-0.54% (inactive)
O=C(c1ccc(S(=O)(=O)N2CCCC2)cc1)N1CCCc2ccccc21	0.11% (inactive)
O=C(Nc1ccc(S(=O)(=O)N2CCCC2)cc1)C1COc2ccccc2O1 (configuration not stated)	1.24% (inactive)

Hey, quick one: what's inhibition for each of these?
1. O=C(/C=C\Nc1ccccn1)c1ccc(Cl)cc1
2. CCOC(=O)c1cnc2c(C)c(Cl)ccc2c1N1CCOCC1
3. CCC(C)Sc1nc2c(cnn2-c2ccc(C)c(C)c2)c(=O)[nH]1 (configuration not stated)
4. CCOC(=O)Cn1c(=O)oc2cc(S(=O)(=O)Nc3c(C)cc(C)cc3C)ccc21
5. Cc1ccc(-n2ncc3c(N4CCC5(CC4)OCCO5)ncnc32)c(C)c1
6. Cc1onc(-c2ccccc2Cl)c1C(=O)NCc1ccc2c(c1)cc(C)n2C

-- reply
1: 2.68% (inactive); 2: 0.755% (inactive); 3: 3.72% (inactive); 4: 0.86% (inactive); 5: 0.765% (inactive); 6: 1.93% (inactive)

Hi, could you look up inhibition for each item in my list?
1. CCOc1ccc(-n2c(Cc3cc(=O)[nH]c(=O)[nH]3)nnc2SCC(=O)NC2CCCC2)cc1
2. OCCn1c(SCCOc2ccccc2F)nc2ccccc21
3. O=C(c1ccc(CS(=O)(=O)c2ccc(Br)cc2)o1)N1CCCCCC1

-- reply
1: -1.29% (inactive); 2: 2.67% (inactive); 3: 0.185% (inactive)

Each of the following entries comes with a recorded value; kindly state inhibition for each.
1. COc1ccc(-n2c(SCC(=O)Nc3nccs3)nc3c(c2=O)SC(C)C3)cc1 (configuration not stated)
2. Cc1noc(NS(=O)(=O)c2ccc(NC(=O)CSc3nc4c(cc3C#N)CCCC4)cc2)c1C

-- reply
1. 1.56% (inactive)
2. 2.52% (inactive)

-- ask What does the data say about its inhibition? Entry: "O=c1[nH]c2ccc(Cl)cc2c(-c2ccccc2)c1N1CCOCC1"
-- reply 0.985% (inactive)

====

# test: inhibitors of the yeast RAM network, pilot screen, dse1pr::URA3 reporter, 5-FOA selection (AID 869);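 also: 0% = DMSO wells with no growth and 100% = 10 µM 1-NA-PP1 with full growth; RAM network block rescues cells from 5-FOA so hits raise OD615 growth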
# assay_context: S. cerevisiae dse1pr::URA3 5-FOA growth, OD615, 2 d; at 10 µM; hits give high values; strain carries analog-sensitive mutant Cbk1 kinase
Calls of active or inactive are those of the source.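 How the source made its calls: active means inhibition over a set limit, the all-compound mean plus 3 SD, in both replicate runs; inconclusive means over that limit in just one replicate run; inactive means at or under that limit in both runs.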
assay_metric: inhibition

COc1ccc(-n2c3c(cc(C(=O)N4CCC(C)CC4)c2=O)C(=O)CC(C)(C)C3)cc1	1.98% (inactive)

Each of the following entries comes with a recorded value; kindly state inhibition for each.
1. CCN1CCN(C(C(=O)NC2CCCC2)c2ccc(Cl)cc2)CC1 (stereo unspecified)
2. Cc1nccc2[nH]c(=O)c(C(=O)NC3CCN(Cc4ccccc4)CC3)cc12

-- reply
1. 1.02% (inactive)
2. 1.82% (inactive)

Give inhibition for each of the items listed below.
1. C=CCn1c(=NC(=O)C2CC2)sc2cc(NC(C)=O)ccc21
2. COc1ccc2c(=O)c(N3C(=O)c4ccccc4C3=O)c(C)oc2c1
3. Cc1cccc(-n2ccnc2SCC(=O)Nc2nnc(C)s2)c1
4. COCc1cc(=O)n2c(-c3ccc(C)cc3)n[nH]c2n1

-- reply
0.675% (inactive)
-0.25% (inactive)
1.13% (inactive)
2.2% (inactive)

Provide the reported inhibition of each entry below, same order.
1. COCCNC(=O)C1CCN(S(=O)(=O)c2ccccc2)CC1
2. CCOC(=O)N1CCN(C(=O)Cc2ccc(Cl)cc2)CC1
3. CCn1c(=O)cc(O)c2ccccc21
4. CCOC(=O)c1c(/N=C/N(C)C)sc(C(=O)OC)c1C

-- reply
1: -0.045% (inactive); 2: 2.03% (inactive); 3: 2.01% (inactive); 4: 0.78% (inactive)

====

# test: RAM signaling pathway blockade in yeast – S. cerevisiae, Pdr1DBD-CYC8 efflux-inhibited sensitized strain, primary screen (AID 1298);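 also: 0% = DMSO untreated cells without growth and 100% = 10 µM 1-NA-PP1 full growth; higher means more yeast growth rescued from 5-FOA killing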
# assay_context: S. cerevisiae cbk1-as DSE1-URA3 strain, 5-FOA growth OD615, 2 d; at 50 µM; hits give high values
Please go through the items and note down their RAM network inhibition.
One number for each entry, in %.

Example results:
Cc1cc(Nc2cc(C(=O)O)ccc2C)n2ncnc2n1	0.57
COCCCNC(=O)c1ccccc1Oc1ccccc1	1.58

Working through the 5 compounds below one at a time, give RAM network inhibition for each.
1. N#Cc1cccc(NC(=O)CC2CCCCC2)c1
2. COc1ccccc1-c1c(C)nn2c(N3CCN(c4ccccc4OC)CC3)cc(C)nc12
3. CCN=C1SC(CC(=O)NC(N)=O)C(=O)N1CC (stereo unspecified)
4. COC(=O)c1ccsc1NC(=O)c1ccc(Cl)s1
5. CCOC(=O)Cn1c(CN2CCc3ccccc3C2)nc2c1c(=O)n(C)c(=O)n2C

-- reply
1: 2.76; 2: 1.3; 3: 1.66; 4: 5.89; 5: 4.64
